test system: Wnt activity (Sp5-Luc reporter, SW480 colon carcinoma cells); experiment: Screening assay for Wnt activity: Sp5-Luc reporter gene assay in SW480 cells; format: cell-based; conditions: Homo sapiens, overnight incubation, 10-point dose-response from 10 μM
pEC50: −log10 of the molar value.
reported_metric: pEC50

> print(dat)
                                   compound  value.operator  assay.value
1  CCCCC(=O)Nc1cncc(-c2ccc3[nH]nc(-c4nc5c(-c6cc(F)cc(NCCN(C)C)c6)ccnc5[nH]4)c3n2)c1 [Compound 467]               <         5.00
2  CC(C)Nc1cncc(-c2ccc3[nH]nc(-c4nc5c(-c6ccoc6)ccnc5[nH]4)c3n2)c1 [Compound 320]               =         6.47
3  CC(C)Nc1cncc(-c2ccc3[nH]nc(-c4nc5c(-c6cc(F)cc(NCCN(C)C)c6)ccnc5[nH]4)c3n2)c1 [Compound 460]               =         5.93
4  CN(C)CCOc1cncc(-c2ccc3[nH]nc(-c4nc5c(-c6cccc(F)c6)ccnc5[nH]4)c3n2)c1 [Compound 515]               =         5.55
5  Cn1cc(-c2ccc3[nH]nc(-c4nc5c(-c6cc(F)cc(CNS(C)(=O)=O)c6)ccnc5[nH]4)c3n2)cn1 [Compound 764]               <         5.00
6  c1cc(-c2ccnc3[nH]c(-c4n[nH]c5ccc(-c6cnccn6)nc45)nc23)ccn1 [Compound 584]               <         5.00
7  CN(C)CCNc1cc(F)cc(-c2ccnc3[nH]c(-c4n[nH]c5ccc(-c6cncc(OCc7ccccc7)c6)nc45)nc23)c1 [Compound 790]               =         5.58

====

system: Wnt activity (Sp5-Luc reporter, SW480 colon carcinoma cells); experiment: Screening assay for Wnt activity: Sp5-Luc reporter gene assay in SW480 cells; type: cell-based; details: Homo sapiens, overnight incubation, 10-point dose-response from 10 μM
pEC50: −log10 of the molar value.
reported_metric: pEC50

> print(dat)
                                   molecule  reported.metric  value.operator  assay.value
1  Fc1ccccc1-c1ccnc2[nH]c(-c3n[nH]c4ccc(-c5ccccn5)nc34)nc12 [Compound 84]            pEC50               =         6.17
2  CS(=O)(=O)NCc1cc(F)cc(-c2ccnc3[nH]c(-c4n[nH]c5ccc(-c6cncnc6)nc45)nc23)c1 [Compound 503]            pEC50               <         5.00
3  CN(C)Cc1cncc(-c2ccc3[nH]nc(-c4nc5c(-c6cccc(F)c6)ccnc5[nH]4)c3n2)c1 [Compound 13]            pEC50               =         5.54
4  CN1CCN(c2ccnc3[nH]c(-c4n[nH]c5ccc(-c6cnccn6)nc45)nc23)CC1 [Compound 648]            pEC50               =         5.36
5  Cc1ccncc1-c1ccc2[nH]nc(-c3nc4c(-c5cc(F)cc(CNS(C)(=O)=O)c5)ccnc4[nH]3)c2n1 [Compound 481]            pEC50               =         5.90
6  Cc1ncc(-c2ccc3[nH]nc(-c4nc5c(-c6ccoc6)ccnc5[nH]4)c3n2)n1C [Compound 685]            pEC50               =         5.55
7  COc1cncc(-c2ccc3[nH]nc(-c4nc5c(-c6cccc(F)c6)ccnc5[nH]4)c3n2)c1 [Compound 516]            pEC50               =         6.47
